These entries and their values trace back to paper PMC6155576.

- TEST: Cell viability by MTT assay
- Format: cell-based, mouse
- CONDITION_NOTES: mouse, BV-2 microglial cells; MTT assay after treatment with 100 μM of each compound for 24 h; mean ± SD
Examples of compounds with documented viability at 24 h, 100 μM follow.
Your answer should be a plain number; it is taken to be in %.

### Prompt Consider the compound C=C1[C@@H]2CC[C@H]3[C@]4(C)C[C@H](O[C@@H]5O[C@H](CO)[C@@H](O)[C@H](O)[C@H]5O)C[C@](C)(CO)[C@H]4CC[C@]3(C2)[C@H]1O [Compound 4, pterokaurane M1 2-O-β-D-glucopyranoside] and give its measured viability at 24 h, 100 μM.
### Response 90.5

### Prompt Consider the compound C=C1[C@@H]2CC[C@H]3[C@]4(C)C[C@H](O[C@@H]5O[C@H](CO)[C@@H](O)[C@H](O)[C@H]5O)C[C@@](C)(CO)[C@H]4CC[C@]3(C2)[C@H]1O and give its measured viability at 24 h, 100 μM.
### Response 73.6

### Prompt Consider the compound C=C1[C@@H]2CC[C@H]3[C@]4(C)C[C@H](O)CC(C)(C)[C@H]4CC[C@]3(C2)[C@H]1O [Compound 1, 2β,15α-dihydroxy-ent-kaur-16-ene] and give its measured viability at 24 h, 100 μM.
### Response 90.7

---

Examples of molecules with documented viability at 24 h, 100 μM follow.
- TEST: Cell viability by MTT assay
- Format: cell-based, mouse
- CONDITION_NOTES: mouse, BV-2 microglial cells; MTT assay after treatment with 100 μM of each compound for 24 h; mean ± SD
Your answer should be a plain number; it is taken to be in %.

Consider the reported viability at 24 h, 100 μM for these molecules:
1. CC1(C)C[C@@H](O[C@@H]2O[C@H](CO)[C@@H](O)[C@H](O)[C@H]2O)C[C@]2(C)[C@@H]1CC[C@@]13C[C@@H](CC[C@H]12)[C@@](O)(CO)C3 :: 93.6
2. C[C@]1(CO)C[C@@H](O)C[C@]2(C)[C@@H]1CC[C@@]13C[C@@H](CC[C@H]12)[C@](C)(O)C3 :: 83.2
3. C=C1[C@@H]2CC[C@H]3[C@]4(C)C[C@H](O)CC(C)(C)[C@H]4CC[C@]3([C@@H]2O)[C@H]1O [Compound 7, pterokaurane P1] :: 88.7
4. CC1(C)C[C@@H](O[C@@H]2O[C@H](CO)[C@@H](O)[C@H](O)[C@H]2O)C[C@]2(C)[C@@H]1CC[C@@]13C[C@@H](CC[C@H]12)[C@](C)(O[C@@H]1O[C@H](CO)[C@@H](O)[C@H](O)[C@H]1O)C3 :: 88.2

### Prompt Consider the molecule C=C1[C@@H]2CC[C@H]3[C@]4(C)C[C@H](O)C[C@](C)(CO)[C@H]4CC[C@]3(C2)[C@H]1O and give its measured viability at 24 h, 100 μM.
### Response 87.7

---

Examples of compounds with documented viability at 24 h, 100 μM follow.
- TEST: Cell viability by MTT assay
- Format: cell-based, mouse
- CONDITION_NOTES: mouse, BV-2 microglial cells; MTT assay after treatment with 100 μM of each compound for 24 h; mean ± SD
Your answer should be a plain number; it is taken to be in %.

### Prompt Consider the compound C=C1[C@@H]2CC[C@H]3[C@]4(C)C[C@H](O[C@@H]5O[C@H](CO)[C@@H](O)[C@H](O)[C@H]5O)CC(C)(C)[C@H]4CC[C@]3(C2)[C@H]1O [Compound 2, creticoside A] and give its measured viability at 24 h, 100 μM.
### Response 95.7

### Prompt Consider the compound C=C1[C@@H]2CC[C@H]3[C@]4(C)C[C@H](O)CC(C)(C)[C@H]4[C@H](O)C[C@]3(C2)[C@H]1O [Compound 6, 2β,6β,15α-trihydroxy-ent-kaur-16-ene] and give its measured viability at 24 h, 100 μM.
### Response 85.9

### Prompt Consider the compound CC1(C)C[C@@H](O)C[C@]2(C)[C@@H]1CC[C@@]13C[C@@H](CC[C@H]12)[C@](C)(O)C3 [Compound 9, 2β,16α-dihydroxy-ent-kaurane] and give its measured viability at 24 h, 100 μM.
### Response 97.5

### Prompt Consider the compound C=C1[C@@H]2CC[C@H]3[C@]4(C)C[C@H](O[C@@H]5O[C@H](CO)[C@@H](O)[C@H](O)[C@H]5O)CC(C)(C)[C@H]4CC[C@]3([C@@H]2O)[C@H]1O [Compound 8, pterokaurane P1 2-O-β-D-glucopyranoside] and give its measured viability at 24 h, 100 μM.
### Response 91.7

### Prompt Consider the compound COC(=O)[C@@H](N)CCCNC(N)=N[N+](=O)[O-] [L-NAME, Nω-nitro-L-arginine methyl ester, reference compound] and give its measured viability at 24 h, 100 μM.
### Response 100
